Listing of entries alongside the reported Ki.
test_target: T1, secreted, soluble furin (human, UniProt P09958 108-715, limits assumed)
T1 construct: Secreted, soluble construct; also called human furin
T1 sequence (P09958 108-715 limits assumed): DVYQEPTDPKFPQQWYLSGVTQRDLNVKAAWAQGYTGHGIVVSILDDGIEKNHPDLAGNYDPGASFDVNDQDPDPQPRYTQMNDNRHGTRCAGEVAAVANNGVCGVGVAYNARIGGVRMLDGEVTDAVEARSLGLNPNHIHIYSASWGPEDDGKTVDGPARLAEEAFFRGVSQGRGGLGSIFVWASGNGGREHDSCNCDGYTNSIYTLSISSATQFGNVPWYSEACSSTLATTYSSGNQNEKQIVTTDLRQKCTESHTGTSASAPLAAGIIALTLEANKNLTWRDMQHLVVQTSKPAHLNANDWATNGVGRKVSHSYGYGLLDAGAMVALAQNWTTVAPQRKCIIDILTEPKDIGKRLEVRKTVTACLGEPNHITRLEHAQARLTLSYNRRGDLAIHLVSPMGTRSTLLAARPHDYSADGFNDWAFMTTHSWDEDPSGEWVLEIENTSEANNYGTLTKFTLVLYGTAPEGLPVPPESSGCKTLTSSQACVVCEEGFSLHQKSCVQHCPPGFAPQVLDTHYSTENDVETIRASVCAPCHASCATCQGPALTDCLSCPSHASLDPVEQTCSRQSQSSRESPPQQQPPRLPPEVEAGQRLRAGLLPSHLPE
protocol_description: enzyme inhibition, purified variant
readout_type: Ki (nM)

>>> reading("Met49-R4R1-eglin (designed binder, R4R1 template; N-terminal Met removed) SMGSELKSFPEVVGKTVDQAREYFTLHYPQYDVYFLPEGSRVTRDLRMNRVRVFYNPGTNVVNHVPHVG")
1.6
>>> reading("Glu49-R4R1-eglin (designed binder, R4R1 template; N-terminal Met removed) SMGSELKSFPEVVGKTVDQAREYFTLHYPQYDVYFLPEGSRVTRDLRENRVRVFYNPGTNVVNHVPHVG")
0.53
>>> reading("Tyr49Ala-R4R1-eglin (designed binder, R4R1 template; N-terminal Met removed; also called Ala49-R4R1-) SMGSELKSFPEVVGKTVDQAREYFTLHYPQYDVYFLPEGSRVTRDLRANRVRVFYNPGTNVVNHVPHVG")
1.8
>>> reading("Ser49-R4R1-eglin (designed binder, R4R1 template; N-terminal Met removed) SMGSELKSFPEVVGKTVDQAREYFTLHYPQYDVYFLPEGSRVTRDLRSNRVRVFYNPGTNVVNHVPHVG")
4.8
>>> reading("Tyr49Asp-R4R1-eglin (designed binder, R4R1 template; N-terminal Met removed; also called Asp49-R4R1-eglin; Asp49-R4R1-) SMGSELKSFPEVVGKTVDQAREYFTLHYPQYDVYFLPEGSRVTRDLRDNRVRVFYNPGTNVVNHVPHVG")
0.3
>>> reading("R4R1-eglin (designed binder, N-terminal Met removed; also called Tyr49-R4R1-; D33Y49) SMGSELKSFPEVVGKTVDQAREYFTLHYPQYDVYFLPEGSRVTRDLRYNRVRVFYNPGTNVVNHVPHVG")
2.5
>>> reading("Trp49-R4R1-eglin (designed binder, R4R1 template; N-terminal Met removed) SMGSELKSFPEVVGKTVDQAREYFTLHYPQYDVYFLPEGSRVTRDLRWNRVRVFYNPGTNVVNHVPHVG")
10
